System: Plasmodium falciparum
experiment.summary: GSK_TCMDC: Inhibition of Plasmodium falciparum 3D7 in whole erythrocytes, using parasite LDH activity as an index of growth.
Format: functional, organism-based
condition.summary: Plasmodium falciparum, 3D7

{"molecule": "CCN(CC)CCN(Cc1ccc(-c2ccc(C(F)(F)F)cc2)cc1)C(=O)Cn1c(CCc2cccc(F)c2F)nc(=O)c2cc(F)c(F)cc21", "assayed.system": "Plasmodium falciparum", "XC50": "833 nM"}
{"molecule": "CC12CCC(CN(CC(O)Cn3c4ccccc4c4cc(I)ccc43)C1)C2(C)C (stereo not given)", "assayed.system": "Plasmodium falciparum", "XC50": "1160 nM"}
{"molecule": "CCc1nc2c(cnn2CC)c(NC2CCOCC2)c1CNC(=O)N1CCOCC1", "assayed.system": "Plasmodium falciparum", "XC50": "892 nM"}
{"molecule": "O=C(/C=C/c1ccc(Cl)cc1)NCCCCCN1CCCN(C(=O)Nc2cccc(Cl)c2)CC1", "assayed.system": "Plasmodium falciparum", "XC50": "1000 nM"}
{"molecule": "Cc1nc2ccccc2c(=O)n1/N=C/c1ccccc1[N+](=O)[O-]", "assayed.system": "Plasmodium falciparum", "XC50": "221 nM"}
{"molecule": "Cc1cccc2nc(-c3ccc(-c4cccc(CN5CCN(CC6CCCN(C)C6)CC5)c4)s3)[nH]c12 (stereo not given)", "assayed.system": "Plasmodium falciparum", "XC50": "121 nM"}
{"molecule": "CCCCCCCc1cc(=O)c2ccccc2[nH]1", "assayed.system": "Plasmodium falciparum", "XC50": "317 nM"}
{"molecule": "CC(C)(C)OC(=O)NCCc1cccc(-c2c[nH]c3ncc(-c4cccc(NS(C)(=O)=O)c4)cc23)c1", "assayed.system": "Plasmodium falciparum", "XC50": "684 nM"}
{"molecule": "O=C(Nc1nccs1)c1cn(-c2ccccc2)nc1-c1ccc(Cl)s1", "assayed.system": "Plasmodium falciparum", "XC50": "970 nM"}
{"molecule": "COc1cc2nc(NCCc3ccccc3)nc(NCc3ccc(C#N)cc3)c2cc1OC", "assayed.system": "Plasmodium falciparum", "XC50": "145 nM"}
{"molecule": "O=C(/C=C/c1ccc(Cl)c(Cl)c1)Nc1cccc(CN2CCC(c3c[nH]c4ccc(O)cc34)CC2)c1", "assayed.system": "Plasmodium falciparum", "XC50": "945 nM"}
{"molecule": "O=C(Nc1cc(Cl)cc(Cl)c1)N[C@H]1CCN(CCCCCNC(=O)C2CC2c2ccc(Cl)c(Cl)c2)C1 (stereo not given in full)", "assayed.system": "Plasmodium falciparum", "XC50": "856 nM"}
{"molecule": "CCN(CC)CCNc1ccnc2[nH]c3ccc(I)cc3c12", "assayed.system": "Plasmodium falciparum", "XC50": "230 nM"}
{"molecule": "OC(CNCc1cccc(Oc2ccc(Cl)cc2)c1)c1cc(C(F)(F)F)cc(C(F)(F)F)c1 (stereo not given)", "assayed.system": "Plasmodium falciparum", "XC50": "255 nM"}
{"molecule": "OC(CN1CCN(c2cccc(Cl)c2)CC1)C(c1ccccc1)c1ccccc1 (stereo not given)", "assayed.system": "Plasmodium falciparum", "XC50": "1150 nM"}
{"molecule": "COC(=O)/C=C/c1ccc(CC(C)NCC(O)c2cccc(C(F)(F)F)c2)cc1 (stereo not given)", "assayed.system": "Plasmodium falciparum", "XC50": "731 nM"}
{"molecule": "COC(=O)c1ccc(-c2ccc(-c3cccnc3)cc2C)cc1", "assayed.system": "Plasmodium falciparum", "XC50": "662 nM"}
{"molecule": "CC(=O)c1ccc2cc(C(=O)NC3CCC(CCN4CCc5ccc(-c6noc(C)n6)cc5CC4)CC3)[nH]c2c1 (stereo not given)", "assayed.system": "Plasmodium falciparum", "XC50": "946 nM"}
{"molecule": "COc1ccc(CNC(=O)c2cnc3c(O)cccc3c2Nc2cccc(NC(=O)c3ccc(Cl)c(Cl)c3)c2)cc1", "assayed.system": "Plasmodium falciparum", "XC50": "604 nM"}
{"molecule": "O=C(Nc1ccc2c(c1)CCC2)c1ccc(N2CCN(c3ccncc3)CC2)cc1", "assayed.system": "Plasmodium falciparum", "XC50": "1130 nM"}

// data source = ChEMBL document CHEMBL1157539
